# Test system: CD2F1 mice, L1210 leukemia ip, survival T/C
# PROTOCOL_NOTES: NCI In Vivo Anticancer Drug Screen. Data for tumor model L1210 Leukemia (intraperitoneal) in CD2F1 (CDF1) mice
# APPLIED_CONDITIONS: endpoint: mean survival time; dose: 400.0 mg/kg/injection; schedule: Q04DX003 (ip); vehicle: Klucel (hydroxypropylcellulose) (HPC); higher = longer survival
Inconclusive results and toxic doses are left out.
READOUT: T/C

// worked examples, T/C included
*Q* // fetch CD2F1 mice, L1210 leukemia ip, survival T/C T/C for COC1OC(COC(c2ccccc2)(c2ccccc2)c2ccccc2)C(OC(C)=O)C1OC(C)=O (stereo not drawn)
*A* 89 % of control

*Q* Next: COCC/C(COC)=N\N=C(/CCOC)COC
*A* 114 % of control

*Q* Next: CCCCCCCCC1SC1CCCCCCCCOC(=O)CCCCCCCC1SC1CCCCCCCC (stereo not drawn)
*A* 102 % of control

*Q* Next: O=C(CCl)N1CCc2ccccc21
*A* 97 % of control

*Q* Next: CC(=O)Nc1ncc2ccccc2c1-c1ccc(N(CCCl)CCCl)cc1
*A* 104 % of control

Respectfully, I request T/C for each entry included below.
1. Brc1ccc(-c2ccc(Br)cc2)cc1
2. C#CCCOC(=O)Nc1ccccc1
3. C(=N\Nc1ccccc1)/c1ccccc1

*A*
1: 95 % of control; 2: 110 % of control; 3: 96 % of control

====

# Tested on: CD2F1 mice, L1210 leukemia ip, survival T/C
# PROTOCOL_NOTES: NCI In Vivo Anticancer Drug Screen. Data for tumor model L1210 Leukemia (intraperitoneal) in CD2F1 (CDF1) mice
# APPLIED_CONDITIONS: endpoint: mean survival time; dose: 50.0 mg/kg/injection; schedule: Q01DX009 (ip); vehicle: Klucel (hydroxypropylcellulose) (HPC); higher = longer survival
Toxic doses and inconclusive results are not listed.
READOUT: T/C

// worked examples, T/C included
*Q* Which T/C value is on record for N#CCc1nc2ccccc2[nH]1 ?
*A* 93 % of control

*Q* Next: C=CCN(CC=C)Cc1cccc(N(CCCl)CCCl)c1 (tested in a mixture with another compound)
*A* 109 % of control

*Q* Next: Nc1ccc(Br)cc1-c1nc(N)c2cc(Br)ccc2n1
*A* 104 % of control

*Q* Next: S=c1cc[nH]c(=S)[nH]1
*A* 101 % of control

*Q* Next: CN(C)Cc1cccc2ccccc12
*A* 97 % of control

*Q* Next: C[C@]12CCC(=O)C(O)=C1CC[C@@H]1[C@@H]2CC[C@]2(C)C(=O)CC[C@@H]12
*A* 104 % of control

*Q* Next: O=C(/C=C/c1ccccc1)N/N=C/c1ccccc1Cl
*A* 105 % of control

*Q* Next: COc1ccc(NC(=O)Oc2cc(=O)oc3ccccc23)c(Cl)c1
*A* 107 % of control

*Q* Next: N#Cc1ccc(CCl)cc1
*A* 98 % of control

Kindly consider the entry below.
*Q* Which T/C value is on record for C1=NC(c2ccccn2)=NNC(c2ccccn2)=C1c1ccccc1 ?
*A* 95 % of control

====

# Tested on: CD2F1 mice, L1210 leukemia ip, survival T/C
# PROTOCOL_NOTES: NCI In Vivo Anticancer Drug Screen. Data for tumor model L1210 Leukemia (intraperitoneal) in CD2F1 (CDF1) mice
# APPLIED_CONDITIONS: endpoint: mean survival time; dose: 200.0 mg/kg/injection; schedule: Q01DX005 (ip); vehicle: water; higher = longer survival
Toxic doses and inconclusive results are not listed.
READOUT: T/C

// worked examples, T/C included
*Q* // fetch CD2F1 mice, L1210 leukemia ip, survival T/C T/C for COc1ccc(CN2CCCNCC2)cc1
*A* 95 % of control

*Q* Next: NC(=O)c1ncn(C2OC(CO)C(O)C2O)c1C(N)=O (stereo unspecified)
*A* 112 % of control

*Q* Next: Nc1cc(=O)c2nnn(C3OC(CO)C(O)C3O)c2[nH]1 (stereo unspecified)
*A* 105 % of control

*Q* Next: O=c1[nH][nH]c2nccnc12
*A* 101 % of control

Respectfully, I request T/C for each entry included below.
1. CC1(O)Nc2nc3c(ncn3C3OC(CO)C(O)C3O)c(=O)n2C1O (stereo unspecified)
2. O=C(CCNC(=O)OCc1ccccc1)NC(CSCc1ccccc1)C(=O)O (stereo unspecified)

*A*
95 % of control
108 % of control
